Could you please report measured % inhibition of CD62L shedding for the items listed next?
Molecular target: Recombinant human Gal3 (rhGal3) (TrueBinding, #QC200361) (human, UniProt P17931 2-250); note: test concentration or dose not given here
Experiment: cell-based or functional assay
API: value field is a number in %; no unit string.

Query: Input 24D12.2H9 (antibody, human IgG4 S228P, kappa, V domains shown) VH: QVQLKQSGPGLVQPSQSLSITCTVSGFSLTSYGVHWVRQAPGKGLEWLGVIWSGGSTDYNAAFMSRLSISKDNSKSQVFFKMNSLQADDTAIYYCAKSPDGYDVAWFGYWGQGTLVTVSA VL: DIVMTQSHKFMSTSVGDRVSITCKASQDVRTAVAWYQQKPGQSPKLLIYWASTRHTGVPDRFTGSGSGTDFTLTLSNVQSEDLADYFCQQYSSYPWTFGGGTKLEIKR , output reported % inhibition of CD62L shedding.
Response: 73.1

Query: Input 847.2B8 (antibody, V domains shown) VH: QVQLKQSGPGLVQPSQSLSITCTVSGFSLINYGVHWVRQSPGKGLEWLGVIWSGGSTDYNAAFISRLSISKDNSKSQVFFKMNSLQADDTAIYYCARIYYYGRGYAMDYWGQGTSVTVSS VL: QILLSQSPAILSASPGEKVTMTCRASSSVTYMYWYQQKPGSSPQPWIYATSNLASGVPARFSGSGSGTSYSLTISRVEAEDAATYYCQQWSSNPLTFGAGTKLELK , output reported % inhibition of CD62L shedding.
Response: 7
